Target: xanthine oxidase from bovine milk source (Bos taurus, UniProt P80457)
Construct: xanthine oxidase from bovine milk source; purchased Sigma Aldrich, USA; host or cells: bovine milk
Sequence (P80457 whole entry): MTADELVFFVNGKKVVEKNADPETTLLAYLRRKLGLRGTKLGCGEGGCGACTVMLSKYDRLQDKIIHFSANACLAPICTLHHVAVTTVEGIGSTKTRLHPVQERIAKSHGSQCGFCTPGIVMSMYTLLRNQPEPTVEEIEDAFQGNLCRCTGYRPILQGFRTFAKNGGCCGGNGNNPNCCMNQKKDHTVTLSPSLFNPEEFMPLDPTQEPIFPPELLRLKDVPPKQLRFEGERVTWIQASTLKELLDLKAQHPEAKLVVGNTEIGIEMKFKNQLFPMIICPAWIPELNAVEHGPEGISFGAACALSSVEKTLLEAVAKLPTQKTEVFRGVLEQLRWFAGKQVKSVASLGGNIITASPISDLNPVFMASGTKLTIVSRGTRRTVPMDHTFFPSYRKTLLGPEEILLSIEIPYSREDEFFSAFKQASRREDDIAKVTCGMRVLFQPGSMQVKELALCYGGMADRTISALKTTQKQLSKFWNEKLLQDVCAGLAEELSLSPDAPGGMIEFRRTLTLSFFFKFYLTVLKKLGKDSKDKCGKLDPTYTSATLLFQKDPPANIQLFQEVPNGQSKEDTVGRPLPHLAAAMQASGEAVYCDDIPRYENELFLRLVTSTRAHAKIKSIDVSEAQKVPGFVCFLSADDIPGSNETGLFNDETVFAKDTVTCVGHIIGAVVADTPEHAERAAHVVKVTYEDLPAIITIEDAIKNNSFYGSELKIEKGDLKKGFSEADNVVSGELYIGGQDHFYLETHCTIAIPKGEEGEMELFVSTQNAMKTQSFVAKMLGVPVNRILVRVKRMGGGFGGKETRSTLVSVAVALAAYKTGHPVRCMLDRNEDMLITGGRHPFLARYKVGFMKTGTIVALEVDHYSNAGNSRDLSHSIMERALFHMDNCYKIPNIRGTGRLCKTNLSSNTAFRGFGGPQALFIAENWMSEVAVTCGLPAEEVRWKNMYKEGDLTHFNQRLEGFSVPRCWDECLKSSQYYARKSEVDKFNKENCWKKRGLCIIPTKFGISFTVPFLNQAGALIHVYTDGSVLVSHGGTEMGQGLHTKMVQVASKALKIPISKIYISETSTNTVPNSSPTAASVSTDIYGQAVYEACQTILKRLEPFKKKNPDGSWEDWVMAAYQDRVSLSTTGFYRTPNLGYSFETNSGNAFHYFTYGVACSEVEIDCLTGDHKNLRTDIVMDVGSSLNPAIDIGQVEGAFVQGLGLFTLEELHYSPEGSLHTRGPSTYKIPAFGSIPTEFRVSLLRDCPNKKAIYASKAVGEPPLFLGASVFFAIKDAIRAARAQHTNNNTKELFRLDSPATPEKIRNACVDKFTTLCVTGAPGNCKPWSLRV
Experiment: In-vitro xanthine oxidase inhibitory activity, xanthine as substrate, absorbance at 290 nm
Type: biochemical
Conditions: concentration 60 μg/mL; read-out: Percentage Inhibition (Mean±SEM)
Experimental: The assay mixture consisted of 1mL of the test compound (5 – 100 μg/mL), 2.9 mL of phosphate buffer (pH 7.5) and 0.1 mL of xanthine oxidase enzyme solution (0.1 units/mL in phosphate buffer, pH 7.5), which was prepared immediately before use. […] The reaction was stopped by adding 1 mL of 1 N HCl and the absorbance was measured at 290 nm using an UV spectrophotometer ([19], [20]). […] The percentage inhibition was calculated by, […]
Catalogue of inhibition at 60 µg/mL values
outcomeMeasure: inhibition at 60 µg/mL (%)

INSERT INTO measurements (compound, system, readingunit, reportedresult) VALUES
  ('O=c1c(O)c(-c2cc(O)c(O)c(O)c2)oc2cc(O)cc(O)c12 [Myricetin]', 'xanthine oxidase from bovine milk source (Bos taurus, UniProt P80457)', '%', 72.8),
  ('Oc1cc(O)c2c(c1)O[C@H](c1cc(O)c(O)c(O)c1)[C@H](O)C2 [Epigallocatechin]', 'xanthine oxidase from bovine milk source (Bos taurus, UniProt P80457)', '%', 74.5),
  ('COc1cc2c(=O)c(-c3ccc(O)cc3)coc2cc1O [Glycitein]', 'xanthine oxidase from bovine milk source (Bos taurus, UniProt P80457)', '%', 87.7),
  ('O=c1c(-c2ccc(O)cc2)coc2cc(O)ccc12 [Daidzein]', 'xanthine oxidase from bovine milk source (Bos taurus, UniProt P80457)', '%', 78.7);

###

Catalogue of inhibition at 40 µg/mL values
target: xanthine oxidase from bovine milk source (Bos taurus, UniProt P80457); construct: xanthine oxidase from bovine milk source; purchased Sigma Aldrich, USA; host or cells: bovine milk; assay: In-vitro xanthine oxidase inhibitory activity, xanthine as substrate, absorbance at 290 nm; assay type: biochemical; details: concentration 40 μg/mL; read-out: Percentage Inhibition (Mean±SEM)
outcomeMeasure: inhibition at 40 µg/mL

INSERT INTO measurements (compound, reportedresult) VALUES
  ('O=c1c(-c2ccc(O)cc2)coc2cc(O)ccc12 [Daidzein]', '62.4%'),
  ('O=c1c(O)c(-c2cc(O)c(O)c(O)c2)oc2cc(O)cc(O)c12 [Myricetin]', '58.5%'),
  ('Oc1cc(O)c2c(c1)O[C@H](c1cc(O)c(O)c(O)c1)[C@H](O)C2 [Epigallocatechin]', '54.3%'),
  ('COc1cc2c(=O)c(-c3ccc(O)cc3)coc2cc1O [Glycitein]', '75.5%');

###

biological target: xanthine oxidase from bovine milk source (Bos taurus, UniProt P80457); construct: xanthine oxidase from bovine milk source; purchased Sigma Aldrich, USA; host or cells: bovine milk; test: In-vitro xanthine oxidase inhibitory activity, xanthine as substrate, absorbance at 290 nm; assay type: biochemical; conditions: concentration 5 μg/mL; read-out: Percentage Inhibition (Mean±SEM)
Catalogue of inhibition at 5 µg/mL values
outcomeMeasure: inhibition at 5 µg/mL (%)

INSERT INTO assay_data (compound, outcomemeasure, reportedresult) VALUES
  ('O=c1c(-c2ccc(O)cc2)coc2cc(O)ccc12', 'inhibition at 5 µg/mL', 32.9),
  ('O=c1c(O)c(-c2cc(O)c(O)c(O)c2)oc2cc(O)cc(O)c12', 'inhibition at 5 µg/mL', 28.4),
  ('COc1cc2c(=O)c(-c3ccc(O)cc3)coc2cc1O', 'inhibition at 5 µg/mL', 29.6),
  ('Oc1cc(O)c2c(c1)O[C@H](c1cc(O)c(O)c(O)c1)[C@H](O)C2 [Epigallocatechin]', 'inhibition at 5 µg/mL', 31.2);

###

Catalogue of inhibition at 20 µg/mL values
target: xanthine oxidase from bovine milk source (Bos taurus, UniProt P80457); construct: xanthine oxidase from bovine milk source; purchased Sigma Aldrich, USA; host or cells: bovine milk; experiment: In-vitro xanthine oxidase inhibitory activity, xanthine as substrate, absorbance at 290 nm; type: biochemical; conditions: concentration 20 μg/mL; read-out: Percentage Inhibition (Mean±SEM)
outcomeMeasure: inhibition at 20 µg/mL (%)

INSERT INTO measurements (molecule, system, readingunit, reportedresult) VALUES
  ('O=c1c(-c2ccc(O)cc2)coc2cc(O)ccc12', 'xanthine oxidase from bovine milk source (Bos taurus, UniProt P80457)', '%', 46.6),
  ('O=c1c(O)c(-c2cc(O)c(O)c(O)c2)oc2cc(O)cc(O)c12', 'xanthine oxidase from bovine milk source (Bos taurus, UniProt P80457)', '%', 46.8),
  ('Oc1cc(O)c2c(c1)O[C@H](c1cc(O)c(O)c(O)c1)[C@H](O)C2 [Epigallocatechin]', 'xanthine oxidase from bovine milk source (Bos taurus, UniProt P80457)', '%', 44.5),
  ('COc1cc2c(=O)c(-c3ccc(O)cc3)coc2cc1O', 'xanthine oxidase from bovine milk source (Bos taurus, UniProt P80457)', '%', 68.8);

###

target: xanthine oxidase from bovine milk source (Bos taurus); construct: xanthine oxidase from bovine milk source; purchased Sigma Aldrich, USA; host or cells: bovine milk; assay: In-vitro xanthine oxidase inhibitory activity, xanthine as substrate, absorbance at 290 nm; assay type: biochemical; conditions: concentration 80 μg/mL; read-out: Percentage Inhibition (Mean±SEM)
Catalogue of inhibition at 80 µg/mL values
outcomeMeasure: inhibition at 80 µg/mL (%)

INSERT INTO results (compound, system, reportedresult) VALUES
  ('Oc1cc(O)c2c(c1)O[C@H](c1cc(O)c(O)c(O)c1)[C@H](O)C2 [Epigallocatechin]', 'xanthine oxidase from bovine milk source (Bos taurus)', 87.5),
  ('O=c1c(O)c(-c2cc(O)c(O)c(O)c2)oc2cc(O)cc(O)c12', 'xanthine oxidase from bovine milk source (Bos taurus)', 86.7),
  ('COc1cc2c(=O)c(-c3ccc(O)cc3)coc2cc1O', 'xanthine oxidase from bovine milk source (Bos taurus)', 95.6),
  ('O=c1c(-c2ccc(O)cc2)coc2cc(O)ccc12', 'xanthine oxidase from bovine milk source (Bos taurus)', 87.5);

###

target: xanthine oxidase from bovine milk source (Bos taurus, UniProt P80457); construct: xanthine oxidase from bovine milk source; purchased Sigma Aldrich, USA; host or cells: bovine milk; assay: In-vitro xanthine oxidase inhibitory activity, xanthine as substrate, absorbance at 290 nm; type: biochemical; details: triplicate; calculated from percentage inhibition
outcomeMeasure: IC50

INSERT INTO results (compound, reportedresult) VALUES
  ('Oc1cc(O)c2c(c1)O[C@H](c1cc(O)c(O)c(O)c1)[C@H](O)C2 [Epigallocatechin]', '118 µM'),
  ('O=c1c(O)c(-c2cc(O)c(O)c(O)c2)oc2cc(O)cc(O)c12', '81.7 µM'),
  ('O=C1C[C@@H](c2ccc(O)cc2)Oc2cc(O)cc(O)c21', '80.8 µM'),
  ('COc1cc2c(=O)c(-c3ccc(O)cc3)coc2cc1O', '42.2 µM');
